The measurements presented in this section are drawn from the Human Domainome abundance scans (Beltran et al. 2025).

B1: Intersectin-1, residues 909 to 971; numbered along this chain, Q15811 (parent)
chain: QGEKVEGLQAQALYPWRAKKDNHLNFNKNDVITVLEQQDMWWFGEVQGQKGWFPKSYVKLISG

- Variants of: B1
- Assay: abundance fitness (aPCA) (normalised: wild type 0, dead -1); higher = more abundant; growth selection in yeast, the domain comes from the species named
- Details: Homo sapiens
Property: abundance fitness; scope: individual variants
// return just the number, without any unit appended

QGEKVEGLQAQALYPWRAKKDNHLNFNKNDVITVLEQQDMWWFGEVQGQKGWFPKSYVKPISG [L60P] ... -0.152
QGEKVEGLQAQALYPWRAKKDNHLNFNKNDVITVLEQQDMWWFGEVQGQKGIFPKSYVKLISG [W52I] ... -0.458
QGEKVEGLQAQALYPWRAKKDNHLNFNKNDVITVLEQQDMWWSGEVQGQKGWFPKSYVKLISG [F43S] ... -0.546
QGEKVEGLQAQALYPWRAKKDNHLNFNKNDVITVLLQQDMWWFGEVQGQKGWFPKSYVKLISG [E36L] ... -0.094
QGEKVEGLQAQALYPWRAKKDNHLNFNKNDVITVLEQQDMWWFGEVQGHKGWFPKSYVKLISG [Q49H] ... 0.045
QGEKVEGLQAQALYPWRLKKDNHLNFNKNDVITVLEQQDMWWFGEVQGQKGWFPKSYVKLISG [A18L] ... -0.274

*Q* Which abundance fitness value is on record for QGEKVEGLQAQALYGWRAKKDNHLNFNKNDVITVLEQQDMWWFGEVQGQKGWFPKSYVKLISG [P15G] ?
*A* 0.115

*Q* Which abundance fitness value is on record for QGEKVEGSQAQALYPWRAKKDNHLNFNKNDVITVLEQQDMWWFGEVQGQKGWFPKSYVKLISG [L8S] ?
*A* -0.117

*Q* Which abundance fitness value is on record for QGEKVEGLQAQRLYPWRAKKDNHLNFNKNDVITVLEQQDMWWFGEVQGQKGWFPKSYVKLISG [A12R] ?
*A* -0.997
